# targetOfAssay: human LHRH receptor (Homo sapiens, UniProt P30968)
# Sequence (P30968 1-328): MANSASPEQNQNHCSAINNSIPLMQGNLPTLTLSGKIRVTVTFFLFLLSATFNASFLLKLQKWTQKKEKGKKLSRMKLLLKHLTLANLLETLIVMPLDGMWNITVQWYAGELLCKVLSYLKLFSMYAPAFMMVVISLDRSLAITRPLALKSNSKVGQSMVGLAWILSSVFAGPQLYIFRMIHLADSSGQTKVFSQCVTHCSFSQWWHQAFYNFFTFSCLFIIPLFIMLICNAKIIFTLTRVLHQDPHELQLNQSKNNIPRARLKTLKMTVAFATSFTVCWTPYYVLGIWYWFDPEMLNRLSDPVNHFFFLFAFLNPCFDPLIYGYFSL
# testSummary: functional assay for antagonistic activity, fos-Luc luciferase reporter gene, stimulation with 1 nM [D-Trp6] LHRH
# experimentalSetup: cells stimulated with 1 nM [D-Trp6] LHRH for 6 h; bracket = number of independent experiments
Numbered stars: 1 amine (or outer) side, 2 acyl side, 3 side chain; on linkers, the order of the positions; unused ones are H or OH. Square brackets hold non-standard residues; d marks the D form. Side chains are listed from the residue outwards. Peptide text beside a SMILES is read from it. * marks the point of attachment. NH(4-amidinophenyl) = N=C(N)c1ccc(N*)cc1; dPhe(4-Cl) = N[C@H](Cc1ccc(Cl)cc1)C(=O)O; d2Nal = N[C@H](Cc1ccc2ccccc2c1)C(=O)O; NMeY = CN[C@@H](Cc1ccc(O)cc1)C(=O)O; d3Pal = N[C@H](Cc1cccnc1)C(=O)O; Suc = O=C(CCC(=O)[*:2])[*:1]
observable: pIC50
Kindly note that pIC50 refers to -log10 of the concentration in mol/L and answer with the value alone.

Item CC(=O)N[C@H](Cc1ccc2ccccc2c1)C(=O)N[C@H](Cc1ccc(Cl)cc1)C(=O)N[C@H](Cc1cccnc1)C(=O)N[C@@H](CO)C(=O)N(C)[C@@H](Cc1ccc(O)cc1)C(=O)N[C@H](CCCCNC(=O)CCC(=O)Nc1ccc(C(=N)N)cc1)C(=O)N[C@@H](CC(C)C)C(=O)N[C@@H](CCCNC(=N)N)C(=O)N1CCC[C@H]1C(=O)N[C@H](C)C(N)=O [Example 3] (Ac-[d2Nal][dPhe(4-Cl)][d3Pal]S[NMeY][dK]([Suc-NH(4-amidinophenyl)])LRP[dA]-NH2) ; assay system human LHRH receptor (Homo sapiens, UniProt P30968); pIC50 reported as 9.31

Values compiled from patent US7732412B2.
